Source listed as paper PMC10581251.

# System: C. difficile ATCC 630
# RUN_DESCRIPTION: microbe, parasite or virus in culture
# MEASUREMENT_CONTEXT: broth microdilution, Mueller-Hilton II broth, anaerobic 48 hours 37°C, visual; triplicate, repeated twice
MEASURED_QUANTITY: MIC (µM)
Give the value, in units of µM, as a plain number.

For RFRRFRRFRRFRXB-O-CATGGACAAAAC-NH2 [(RFR)4XB -rpoA] on C. difficile ATCC 630, measured MIC was 8

For KKKKKKKK-O-CATGGACAAAAC-NH2 [K8-rpoA] on C. difficile ATCC 630, measured MIC was 32

For GRKKKRRQRRRYK-O-CATGGACAAAAC-NH2 [rpoA-TAT] on C. difficile ATCC 630, measured MIC was 8

For RXRRXRRXRRXRXB-O-CATGGACAAAAC-NH2 [(RXR)4XB -rpoA] on C. difficile ATCC 630, measured MIC was 8

For KFFKFFKFFK-O-CATGGACAAAAC-NH2 [(KFF)3K-rpoA] on C. difficile ATCC 630, measured MIC was 32
